Source listed as paper PMC10663500.

- target-or-test-system: T1, mouse programmed cell death protein 1 Fc fusion protein (mPD-1-Fc), mPD-1 C60S (aa 25-167) (Mus musculus, UniProt Q02242, stabilised)
- T1 construct: not cleaved; source: Expi293F, purified (Protein A, SEC; dimeric fraction); not shown: Fc (human), C-terminal, kept
- experiment: SPR; Carterra LSA; Fab from the ammonium sulfate precipitate of the culture supernatant immobilised on a NiHC200M chip; hPD-1 (1-1024 nM) or mPD-1-Fc (4-1024 nM) as analyte, fourfold dilution series, no regeneration; HBS-EP pH 7.4, 25 °C; medians over the spots of a construct, KD = koff/kon
- measurement-conditions: one partner purified
measured-property: kon (M⁻¹ s⁻¹)
Give just the number in M⁻¹ s⁻¹; leave the unit off.

Q: Complete the entry with kon for toripalimab Fab H.G57Y (Fab, V domains shown, heavy chain of Sm3 with this change; numbers count from the chain's first residue; as the light chain of Sm3; source: Brevibacillus, culture supernatant (ammonium sulfate precipitate); not shown: 6xHis, C-terminal, kept; 6xHN, C-terminal, kept) VH: QGQLVQSGAEVKKPGASVKVSCKASGYTFTDYEMHWVRQAPIHGLEWIGVIESETGYTAYNQKFKGRVTITADKSTSTAYMELSSLRSEDTAVYYCAREGITTVATTYYWYFDVWGQGTTVTVSS VL: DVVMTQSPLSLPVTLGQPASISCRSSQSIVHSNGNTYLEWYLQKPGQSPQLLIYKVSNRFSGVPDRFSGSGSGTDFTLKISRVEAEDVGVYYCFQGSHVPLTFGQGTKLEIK
A: 73500

Q: Complete the entry with kon for toripalimab Fab H.D31Y (Fab, V domains shown, heavy chain of Sm3 with this change; numbers count from the chain's first residue; as the light chain of Sm3; source: Brevibacillus, culture supernatant (ammonium sulfate precipitate); not shown: 6xHis, C-terminal, kept; 6xHN, C-terminal, kept) VH: QGQLVQSGAEVKKPGASVKVSCKASGYTFTYYEMHWVRQAPIHGLEWIGVIESETGGTAYNQKFKGRVTITADKSTSTAYMELSSLRSEDTAVYYCAREGITTVATTYYWYFDVWGQGTTVTVSS VL: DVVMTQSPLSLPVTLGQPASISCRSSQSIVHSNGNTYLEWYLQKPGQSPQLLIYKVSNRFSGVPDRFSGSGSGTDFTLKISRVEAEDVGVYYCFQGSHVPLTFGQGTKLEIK
A: 45600

Q: Complete the entry with kon for toripalimab Fab H.T106A (Fab, V domains shown, heavy chain of Sm3 with this change; numbers count from the chain's first residue; as the light chain of Sm3; source: Brevibacillus, culture supernatant (ammonium sulfate precipitate); not shown: 6xHis, C-terminal, kept; 6xHN, C-terminal, kept) VH: QGQLVQSGAEVKKPGASVKVSCKASGYTFTDYEMHWVRQAPIHGLEWIGVIESETGGTAYNQKFKGRVTITADKSTSTAYMELSSLRSEDTAVYYCAREGITTVAATYYWYFDVWGQGTTVTVSS VL: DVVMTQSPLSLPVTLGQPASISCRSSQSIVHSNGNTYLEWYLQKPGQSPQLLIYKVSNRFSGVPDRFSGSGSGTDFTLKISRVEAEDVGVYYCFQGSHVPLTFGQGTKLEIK
A: 39700

Q: Complete the entry with kon for toripalimab Fab L.K55A (Fab, V domains shown, as the heavy chain of Sm3; light chain of Sm3 with this change; numbers count from the chain's first residue; source: Brevibacillus, culture supernatant (ammonium sulfate precipitate); not shown: 6xHis, C-terminal, kept; 6xHN, C-terminal, kept) VH: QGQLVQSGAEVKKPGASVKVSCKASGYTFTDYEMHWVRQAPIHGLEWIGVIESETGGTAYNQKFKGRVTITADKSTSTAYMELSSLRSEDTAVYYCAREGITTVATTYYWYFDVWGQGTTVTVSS VL: DVVMTQSPLSLPVTLGQPASISCRSSQSIVHSNGNTYLEWYLQKPGQSPQLLIYAVSNRFSGVPDRFSGSGSGTDFTLKISRVEAEDVGVYYCFQGSHVPLTFGQGTKLEIK
A: 45200

Q: Complete the entry with kon for toripalimab Fab H.T58Y (Fab, V domains shown, heavy chain of Sm3 with this change; numbers count from the chain's first residue; as the light chain of Sm3; source: Brevibacillus, culture supernatant (ammonium sulfate precipitate); not shown: 6xHis, C-terminal, kept; 6xHN, C-terminal, kept) VH: QGQLVQSGAEVKKPGASVKVSCKASGYTFTDYEMHWVRQAPIHGLEWIGVIESETGGYAYNQKFKGRVTITADKSTSTAYMELSSLRSEDTAVYYCAREGITTVATTYYWYFDVWGQGTTVTVSS VL: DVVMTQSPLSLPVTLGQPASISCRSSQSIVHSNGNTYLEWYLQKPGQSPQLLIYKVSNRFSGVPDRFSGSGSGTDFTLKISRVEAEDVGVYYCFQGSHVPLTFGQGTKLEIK
A: 49600

Q: Complete the entry with kon for toripalimab Fab L.L101K (Fab, V domains shown, as the heavy chain of Sm3; light chain of Sm3 with this change; numbers count from the chain's first residue; source: Brevibacillus, culture supernatant (ammonium sulfate precipitate); not shown: 6xHis, C-terminal, kept; 6xHN, C-terminal, kept) VH: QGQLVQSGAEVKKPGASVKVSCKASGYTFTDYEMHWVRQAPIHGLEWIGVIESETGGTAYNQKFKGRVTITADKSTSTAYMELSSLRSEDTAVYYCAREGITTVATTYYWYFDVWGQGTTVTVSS VL: DVVMTQSPLSLPVTLGQPASISCRSSQSIVHSNGNTYLEWYLQKPGQSPQLLIYKVSNRFSGVPDRFSGSGSGTDFTLKISRVEAEDVGVYYCFQGSHVPKTFGQGTKLEIK
A: 35000

Q: Complete the entry with kon for toripalimab Fab H.K65Y (Fab, V domains shown, heavy chain of Sm3 with this change; numbers count from the chain's first residue; as the light chain of Sm3; source: Brevibacillus, culture supernatant (ammonium sulfate precipitate); not shown: 6xHis, C-terminal, kept; 6xHN, C-terminal, kept) VH: QGQLVQSGAEVKKPGASVKVSCKASGYTFTDYEMHWVRQAPIHGLEWIGVIESETGGTAYNQKFYGRVTITADKSTSTAYMELSSLRSEDTAVYYCAREGITTVATTYYWYFDVWGQGTTVTVSS VL: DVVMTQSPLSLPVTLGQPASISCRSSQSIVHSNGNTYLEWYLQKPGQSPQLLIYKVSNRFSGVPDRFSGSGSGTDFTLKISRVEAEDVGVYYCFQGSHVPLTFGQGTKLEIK
A: 40300

Q: Complete the entry with kon for toripalimab Fab L.G34Y (Fab, V domains shown, as the heavy chain of Sm3; light chain of Sm3 with this change; numbers count from the chain's first residue; source: Brevibacillus, culture supernatant (ammonium sulfate precipitate); not shown: 6xHis, C-terminal, kept; 6xHN, C-terminal, kept) VH: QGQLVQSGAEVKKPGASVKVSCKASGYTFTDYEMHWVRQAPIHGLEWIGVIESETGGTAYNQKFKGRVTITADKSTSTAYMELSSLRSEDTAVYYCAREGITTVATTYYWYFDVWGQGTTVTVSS VL: DVVMTQSPLSLPVTLGQPASISCRSSQSIVHSNYNTYLEWYLQKPGQSPQLLIYKVSNRFSGVPDRFSGSGSGTDFTLKISRVEAEDVGVYYCFQGSHVPLTFGQGTKLEIK
A: 39900
